# Ki measurements, system: hCA I (Homo sapiens, UniProt P00915)
# Sequence (P00915 whole entry): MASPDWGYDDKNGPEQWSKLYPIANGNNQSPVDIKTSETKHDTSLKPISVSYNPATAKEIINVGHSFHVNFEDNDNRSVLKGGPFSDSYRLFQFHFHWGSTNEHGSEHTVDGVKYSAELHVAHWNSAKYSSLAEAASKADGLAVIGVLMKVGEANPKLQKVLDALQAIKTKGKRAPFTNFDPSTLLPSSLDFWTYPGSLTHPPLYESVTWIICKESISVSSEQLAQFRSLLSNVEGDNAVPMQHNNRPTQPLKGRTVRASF
Please give a number only; it is taken to be in µM.

Below: 5 molecules and their reported Ki.
COMPOUND_STRUCTURE_STRING	Ki [µM]
COc1ccc(/C=C(\NC(=O)c2ccccc2)C(=O)Nc2ccc(S(N)(=O)=O)cc2)cc1	0.00633
COc1ccc(C=C2N=C(c3ccccc3)OC2=O)cc1	0.0503
COc1ccc(/C=C(\NC(=O)c2ccccc2)C(=O)Nc2ccc(S(=O)(=O)Nc3nccs3)cc2)cc1	0.00916
COc1ccc(/C=C(\NC(=O)c2ccccc2)C(=O)Nc2ccc(S(=O)(=O)Nc3ncccn3)cc2)cc1	0.00802
COc1ccc(/C=C(\NC(=O)c2ccccc2)C(=O)Nc2ccc(S(=O)(=O)NC(=N)N)cc2)cc1	0.0297

The reported Ki value, hCA I (Homo sapiens, UniProt P00915), for COc1ccc(/C=C(\NC(=O)c2ccccc2)C(=O)Nc2ccc(S(=O)(=O)NC(C)=O)cc2)cc1 reads 0.0176

The reported Ki value, hCA I (Homo sapiens, UniProt P00915), for COc1ccc(/C=C(\NC(=O)c2ccccc2)C(=O)Nc2ccc(S(=O)(=O)Nc3nc(C)cc(C)n3)cc2)cc1 reads 0.00407

The reported Ki value, hCA I (Homo sapiens, UniProt P00915), for COc1ccc(/C=C(\NC(=O)c2ccccc2)C(=O)Nc2ccc(S(=O)(=O)Nc3nccc(C)n3)cc2)cc1 reads 0.0114
